Listed molecules paired with reported GI50
Test system: HOP-92
Test: NCI tumour cell line growth inhibition, 48 h
Active and inactive are the calls of the source. Cut-off read from the data, not from the text of the source: active = GI50 up to about 1.1 µM and inactive = higher.

O=[N+]([O-])c1ccc(C(Cl)C(Cl)c2ccc(C(Cl)C(Cl)c3ccc([N+](=O)[O-])cc3[N+](=O)[O-])cc2)c([N+](=O)[O-])c1 (stereo not drawn) | 1.28 µM (inactive)
O=C(O)Cc1ccc(Nc2nc3ccccc3nc2C(=O)O)cc1 | > 100 µM (inactive)

Let us examine a further case.
query: Param readout = GI50; param system = HOP-92; param query = O=C1c2ccccc2C(O)(C(=O)O)C1(O)CC=C(Cl)Cl (stereo not drawn) ; response: value
result: > 74.6 µM (inactive)
